All values here come from PubChem BioAssay.

Target: Follistatin (Homo sapiens)
Experiment: follistatin binders on small-molecule microarrays, primary screen, biochemical, small-molecule microarray, 635/667 nm fluorescence (AID 1132)
Details: FST binding, 635 nm fluorescence, higher = more signal
// composite z-score lookup, one value per entry
# respond with the number and nothing more

In the examples that follow, each entry is paired with its recorded composite z-score.
INSERT INTO results (compound_string, assay_result) VALUES
  ('COCCOC(=O)N1C(=O)[C@@]2(c3cc(C#CC4=CCCCC4)ccc31)[C@H](C(=O)NC[C@H](O)c1ccccc1)[C@H]1C(=O)O[C@H](c3ccccc3)[C@H](c3ccccc3)N1[C@@H]2c1ccccc1OCCO', 1.34),
  ('[N-]=[N+]=NCc1ccccc1[C@H]1OC(c2ccc(OCCCO)cc2)=N[C@@]1(Cc1ccccc1N=[N+]=[N-])C(=O)NCc1ccccc1', 1.03);

Proceeding to the next compound to report its composite z-score.
Q: Record COc1cc(CO)cc(I)c1O[C@H]1C=C(C(=O)NCCO)C[C@@H](NCCc2c[nH]c3ccccc23)[C@@H]1O : what is its composite z-score with Follistatin (Homo sapiens)?
Ans: 0.792
